target: Opioid receptor (Mus musculus, UniProt P42866+P32300+P33534); experiment: Compound was tested for binding affinity on intact HEK cells using [3H]diprenorphine as radioligand co-expressed with delta and kappa opioid receptors; format: cell-based; conditions: hek293
endpointName: Ki (nM)
Record the value in nM, omitting the unit from your answer.

Example results:
[[record]]
compound = "N/C(=N\\CCCNC(=O)CNC(=O)CNC(=O)CCC(=O)NCC(=O)NCC(=O)Nc1cccc2c3c([nH]c12)[C@@H]1Oc2c(O)ccc4c2C12CCN(CC1CC1)C(C4)[C@]2(O)C3)Nc1ccc2[nH]c3c(c2c1)C[C@@]1(O)C2Cc4ccc(O)c5c4C1(CCN2CC1CC1)[C@H]3O5 (stereo not given in full)"
testtarget = "Opioid receptor (Mus musculus, UniProt P42866+P32300+P33534)"
endpointname = "Ki"
testresult = 0.3

[[record]]
compound = "NC(=NCCCCNC(=O)CNC(=O)CNC(=O)CCC(=O)NCC(=O)NCC(=O)Nc1cccc2c3c([nH]c12)[C@@H]1Oc2c(O)ccc4c2C12CCN(CC1CC1)C(C4)[C@]2(O)C3)Nc1ccc2[nH]c3c(c2c1)C[C@@]1(O)C2Cc4ccc(O)c5c4C1(CCN2CC1CC1)[C@H]3O5 (stereo not given in full)"
testtarget = "Opioid receptor (Mus musculus, UniProt P42866+P32300+P33534)"
endpointname = "Ki"
testresult = 1.4

[[record]]
compound = "N/C(=N\\CCCNC(=O)CNC(=O)CCC(=O)NCC(=O)Nc1cccc2c3c([nH]c12)[C@@H]1Oc2c(O)ccc4c2[C@@]12CCN(CC1CC1)[C@H](C4)[C@]2(O)C3)Nc1ccc2[nH]c3c(c2c1)C[C@@]1(O)[C@H]2Cc4ccc(O)c5c4[C@@]1(CCN2CC1CC1)[C@H]3O5"
testtarget = "Opioid receptor (Mus musculus, UniProt P42866+P32300+P33534)"
endpointname = "Ki"
testresult = 315


Let us move to another entry and its Ki.
Incoming: For the record NC(=NCCNC(=O)CNC(=O)CNC(=O)CCC(=O)NCC(=O)NCC(=O)Nc1cccc2c3c([nH]c12)[C@@H]1Oc2c(O)ccc4c2C12CCN(CC1CC1)C(C4)[C@]2(O)C3)Nc1ccc2[nH]c3c(c2c1)C[C@@]1(O)C2Cc4ccc(O)c5c4C1(CCN2CC1CC1)[C@H]3O5 (stereo not given in full) , what value of Ki is listed for Opioid receptor (Mus musculus, UniProt P42866+P32300+P33534)?
Outgoing: 0.5
